- Tested on: PDE1
- method-description: Purified PDE radio-enzymatic assay, PDE1
- Format: biochemical, bovine
- test-conditions: substrate 1 μM cGMP; no regulator; preliminarily reported in ref 26
reported-endpoint: IC50 (µM)
Answers are plain numbers, in µM.

Q: Data request, read-out IC50, for Oc1cc(O)c2cc(O)c(-c3cc(O)c(O)c(O)c3)[o+]c2c1
Ans: 33
